Quick reference: Ki of the listed items.
- measured-target: CDK6/Cyclin D1 (Homo sapiens (Human), UniProt Q00534)
- Sequence (Q00534 whole entry): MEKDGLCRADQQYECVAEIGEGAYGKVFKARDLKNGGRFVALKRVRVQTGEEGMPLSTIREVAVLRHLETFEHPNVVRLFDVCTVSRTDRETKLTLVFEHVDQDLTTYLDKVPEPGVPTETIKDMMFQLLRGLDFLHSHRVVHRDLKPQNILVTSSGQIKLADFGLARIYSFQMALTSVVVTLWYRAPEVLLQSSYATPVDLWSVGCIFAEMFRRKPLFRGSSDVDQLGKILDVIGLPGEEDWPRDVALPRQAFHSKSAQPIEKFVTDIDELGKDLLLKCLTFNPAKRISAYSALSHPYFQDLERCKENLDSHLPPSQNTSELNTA
- Sequence (P24385 whole entry partner): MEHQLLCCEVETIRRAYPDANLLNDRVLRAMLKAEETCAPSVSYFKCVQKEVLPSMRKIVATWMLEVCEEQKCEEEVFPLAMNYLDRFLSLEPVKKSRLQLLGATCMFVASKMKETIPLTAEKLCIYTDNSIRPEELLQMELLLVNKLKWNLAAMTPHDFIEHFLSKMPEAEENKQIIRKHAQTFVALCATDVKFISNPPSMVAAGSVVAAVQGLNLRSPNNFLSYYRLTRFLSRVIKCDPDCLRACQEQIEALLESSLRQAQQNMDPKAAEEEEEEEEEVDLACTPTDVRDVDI
- test-summary: biochemical
- conditions-used: CDK6_Ki (nM), non-phosphorylated CDK6/Cyclin D1, 2 mM ATP, Morrison fit

>  <compound>
Cn1cc(S(=O)(=O)N2CCC(Nc3ncc4ccc(=O)n([C@@H]5CCC[C@@]5(C)O)c4n3)CC2)cn1 (single isomer, unassigned)

>  <uom>
nM

>  <Ki>
1.21

$$$$
>  <compound>
COCCS(=O)(=O)N1CCC(Nc2ncc3ccc(=O)n([C@H]4CCC[C@]4(C)O)c3n2)CC1 (single isomer, unassigned)

>  <uom>
nM

>  <Ki>
8.95

$$$$
>  <compound>
Cn1cnc(S(=O)(=O)N2CCC(Nc3ncc4ccc(=O)n([C@H]5CCC[C@]5(C)O)c4n3)CC2)c1 (single isomer, unassigned)

>  <uom>
nM

>  <Ki>
8.29

$$$$
